pKi: −log10 of the molar value.
pKi, UniProt:P08908: measured values
parameter: pKi

- compound_string: "Cn1ccc2c1CCN(CCN1CCN(c3noc4ccccc34)CC1)C2=O"
  value: 7.45
- compound_string: "O=C1c2cn(C3CC3)nc2CCN1CCN1CCN(c2nsc3ccccc23)CC1"
  value: 8.62
- compound_string: "Cc1cc2c(cn1)C(=O)N(CCN1CCN(c3noc4ccccc34)CC1)CC2"
  value: 8.57
- compound_string: "O=C1c2cnccc2CCN1CCN1CCN(c2nsc3ccccc23)CC1"
  value: 7.98
- compound_string: "Cc1ncc2c(n1)CCN(CCN1CCC(c3noc4ccccc34)CC1)C2=O"
  value: 8.20
- compound_string: "COc1ccc2onc(C3CCN(CCN4CCc5cccnc5C4=O)CC3)c2c1"
  value: 8.74
- compound_string: "O=C1c2[nH]ncc2CCN1CCN1CCC(c2noc3ccccc23)CC1"
  value: 7.94
- compound_string: "O=c1c2cnc(C(F)(F)F)cc2ccn1CCN1CCN(c2nsc3ccccc23)CC1"
  value: 8.48
- compound_string: "Cn1cc2c(n1)CCN(CCN1CCN(c3nsc4ccccc34)CC1)C2=O"
  value: 9.35

====

target: human 5-HT1A receptor (Homo sapiens (Human)); assay: Test 2: agonist activity for human 5-HT1A receptor ([35S]GTPγS binding); conditions: [35S]GTPγS binding; concentration at which half the activity of Emax was obtained
Field: label. Allowed values: y (EC50 < 30 nM) or n (EC50 >= 30 nM).

- compound: "CC1CN(CCN2CCN(c3nsc4ccccc34)CC2)C(=O)c2cnn(C)c21 (centres unmarked)"
  class: "y"
- compound: "CC(C)n1ncc2c1CCN(CCN1CCN(c3nsc4ccccc34)CC1)C2=O"
  class: "n"
- compound: "O=C1c2cncnc2CCN1CCN1CCN(c2nsc3ccccc23)CC1"
  class: "n"
- compound: "Cc1nc2c(o1)C(=O)N(CCN1CCC(c3noc4ccccc34)CC1)CC2"
  class: "n"

====

target: hERG channel (Homo sapiens (Human), UniProt Q12809); assay: Test 6-1: inhibitory activity for hERG channel (auto patch clamp, Qpatch); assay type: cell-based; settings: whole cell auto patch clamp, hERG-CHO cells; read-out: hERG inhibition IC50
Sequence (Q12809 whole entry): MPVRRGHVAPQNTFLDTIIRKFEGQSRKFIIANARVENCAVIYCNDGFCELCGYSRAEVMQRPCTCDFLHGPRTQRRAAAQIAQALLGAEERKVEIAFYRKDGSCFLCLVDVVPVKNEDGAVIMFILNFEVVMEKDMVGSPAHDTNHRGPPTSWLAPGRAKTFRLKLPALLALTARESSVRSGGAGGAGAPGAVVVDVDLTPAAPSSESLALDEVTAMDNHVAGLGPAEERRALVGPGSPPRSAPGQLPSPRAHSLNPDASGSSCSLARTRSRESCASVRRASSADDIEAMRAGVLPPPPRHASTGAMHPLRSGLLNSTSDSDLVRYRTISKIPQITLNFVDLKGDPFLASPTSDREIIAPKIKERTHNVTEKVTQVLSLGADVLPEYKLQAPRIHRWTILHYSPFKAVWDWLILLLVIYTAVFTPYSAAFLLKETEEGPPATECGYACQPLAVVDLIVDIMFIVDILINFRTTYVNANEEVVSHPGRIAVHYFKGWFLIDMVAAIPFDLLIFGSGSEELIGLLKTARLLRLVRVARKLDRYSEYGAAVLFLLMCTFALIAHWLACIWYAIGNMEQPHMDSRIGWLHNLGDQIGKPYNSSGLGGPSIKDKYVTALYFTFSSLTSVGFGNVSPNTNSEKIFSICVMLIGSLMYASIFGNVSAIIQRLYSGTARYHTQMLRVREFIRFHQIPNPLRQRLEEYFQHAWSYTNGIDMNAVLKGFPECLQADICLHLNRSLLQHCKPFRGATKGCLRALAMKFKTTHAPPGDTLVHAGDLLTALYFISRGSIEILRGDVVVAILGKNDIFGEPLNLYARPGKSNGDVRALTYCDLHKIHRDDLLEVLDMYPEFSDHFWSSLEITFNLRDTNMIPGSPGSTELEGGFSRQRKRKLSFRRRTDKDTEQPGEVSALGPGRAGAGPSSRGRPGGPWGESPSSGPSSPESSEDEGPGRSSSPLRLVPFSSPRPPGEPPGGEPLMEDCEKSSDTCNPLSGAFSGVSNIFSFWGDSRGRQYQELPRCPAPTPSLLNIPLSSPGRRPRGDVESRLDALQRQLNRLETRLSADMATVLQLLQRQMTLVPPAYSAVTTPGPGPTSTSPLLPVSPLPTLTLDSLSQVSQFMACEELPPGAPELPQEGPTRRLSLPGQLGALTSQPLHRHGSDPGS
parameter: IC50

- compound: "O=C1c2sccc2CCN1CCN1CCC(c2noc3ccccc23)CC1 [Example 126]"
  assay_target: "hERG channel (Homo sapiens (Human), UniProt Q12809)"
  value: "< 0.3 µM"
- compound: "Cn1ncc2c1CCCC(CCN1CCC(c3noc4ccccc34)CC1)C2=O (centres unmarked) [Example 30]"
  assay_target: "hERG channel (Homo sapiens (Human), UniProt Q12809)"
  value: "0.9 µM"
- compound: "O=C1c2nc[nH]c2CCN1CCN1CCC(c2noc3ccccc23)CC1 [Example 191]"
  assay_target: "hERG channel (Homo sapiens (Human), UniProt Q12809)"
  value: "2.6 µM"
- compound: "Cc1nc2c(o1)CCN(CCN1CCC(c3noc4ccccc34)CC1)C2=O [Example 39]"
  assay_target: "hERG channel (Homo sapiens (Human), UniProt Q12809)"
  value: "1.8 µM"
- compound: "Cc1noc2c1C(=O)N(CCN1CCN(c3nsc4ccccc34)CC1)CC2 [Example 34]"
  assay_target: "hERG channel (Homo sapiens (Human), UniProt Q12809)"
  value: "2.5 µM"

====

target: human 5-HT2A receptor (Homo sapiens (Human)); experiment: Test 3: antagonist activity for human 5-HT2A receptor (aequorin luminescence, CHO-K1 cells); format: cell-based; conditions: aequorin luminescence, CHO-K1 cells, 1 nmol/L 5-HT
Sequence (P28223 whole entry): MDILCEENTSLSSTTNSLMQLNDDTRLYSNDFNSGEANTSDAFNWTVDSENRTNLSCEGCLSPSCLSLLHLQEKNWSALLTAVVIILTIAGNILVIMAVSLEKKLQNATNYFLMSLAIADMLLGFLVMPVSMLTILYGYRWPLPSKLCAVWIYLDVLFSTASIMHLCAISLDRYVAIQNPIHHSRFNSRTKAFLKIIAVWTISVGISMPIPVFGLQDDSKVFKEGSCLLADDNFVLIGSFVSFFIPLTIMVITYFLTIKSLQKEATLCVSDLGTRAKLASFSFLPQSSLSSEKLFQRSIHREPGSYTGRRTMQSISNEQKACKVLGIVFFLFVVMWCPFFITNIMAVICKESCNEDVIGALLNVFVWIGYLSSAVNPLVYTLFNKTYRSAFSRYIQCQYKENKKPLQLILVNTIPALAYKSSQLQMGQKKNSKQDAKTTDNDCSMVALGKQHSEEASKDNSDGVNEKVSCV
Field: label. Allowed values: True (IC50 < 70 nM) or False (IC50 >= 70 nM).

- compound_string: "Cc1cncc2c1CCN(CCN1CCN(c3noc4ccccc34)CC1)C2=O"
  class: "True"
- compound_string: "Cc1cc2c(cn1)C(=O)N(CCN1CC=C(c3noc4ccccc34)CC1)CC2"
  class: "False"
- compound_string: "Cc1nc2c(o1)C(=O)N(CCN1CCN(c3noc4ccccc34)CC1)CC2"
  class: "False"
- compound_string: "O=c1c2cncnc2ccn1CCN1CCC(c2noc3ccccc23)CC1"
  class: "True"

====

molecular target: human 5-HT1A receptor (Homo sapiens (Human), UniProt P08908); test: Test 2: agonist activity for human 5-HT1A receptor ([35S]GTPγS binding); type: biochemical; conditions: agonist activity in the presence of 10 μM of compound, relative to 100 μmol/L 5-HT
Sequence (P08908 whole entry): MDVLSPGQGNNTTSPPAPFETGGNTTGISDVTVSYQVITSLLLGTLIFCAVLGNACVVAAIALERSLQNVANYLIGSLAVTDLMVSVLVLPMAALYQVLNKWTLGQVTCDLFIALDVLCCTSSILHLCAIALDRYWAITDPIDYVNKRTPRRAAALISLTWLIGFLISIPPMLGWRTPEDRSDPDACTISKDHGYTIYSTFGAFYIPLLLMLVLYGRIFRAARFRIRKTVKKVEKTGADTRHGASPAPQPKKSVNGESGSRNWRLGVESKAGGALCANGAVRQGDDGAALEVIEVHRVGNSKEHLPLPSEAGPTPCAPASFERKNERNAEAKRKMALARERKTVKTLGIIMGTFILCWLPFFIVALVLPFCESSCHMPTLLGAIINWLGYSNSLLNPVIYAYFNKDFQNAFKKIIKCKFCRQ
Field: label. Allowed values: criterion met (Emax at 10 µM < 60%) or criterion not met (Emax at 10 µM >= 60%).

- compound: "COc1c2c(nn1C)CCN(CCN1CCN(c3nsc4ccccc34)CC1)C2=O"
  class: "criterion not met"
- compound: "N#Cc1cc2c(cn1)C(=O)N(CCN1CCN(c3nsc4ccccc34)CC1)CC2"
  class: "criterion not met"
- compound: "COc1cc2c(cn1)CCN(CCN1CCN(c3nsc4ccccc34)CC1)C2=O"
  class: "criterion not met"
- compound: "O=C1c2nc[nH]c2CCN1CCN1CCC(c2noc3ccccc23)CC1"
  class: "criterion met"
- compound: "Cc1ccc2c(n1)C(=O)N(CCN1CCN(c3noc4ccccc34)CC1)CC2"
  class: "criterion met"
- compound: "O=c1c2cccnc2ccn1CCN1CCN(c2noc3ccccc23)CC1"
  class: "criterion met"
- compound: "O=C1c2c(Br)n[nH]c2CCN1CCN1CCC(c2noc3ccccc23)CC1"
  class: "criterion met"
- compound: "Cc1noc2c1C(=O)N(CCN1CCN(c3nsc4ccccc34)CC1)CC2"
  class: "criterion met"
- compound: "COc1ccc2c(C3CCN(CCN4CCc5cccnc5C4=O)CC3)noc2c1"
  class: "criterion met"
- compound: "COc1cc2c(cn1)C(=O)N(CCN1CCC(c3noc4ccccc34)CC1)CC2"
  class: "criterion met"
- compound: "Cc1nccc2c1C(=O)N(CCN1CCN(c3noc4ccccc34)CC1)CC2"
  class: "criterion met"
- compound: "O=C1c2cn[nH]c2CCCN1CCN1CCC(c2noc3ccccc23)CC1"
  class: "criterion met"
- compound: "Cn1ncc2c1CCN(CCN1CCN(c3nsc4ccccc34)CC1)C2=O"
  class: "criterion not met"
- compound: "Cc1ncc2c(n1)CCN(CCN1CCN(c3nsc4ccccc34)CC1)C2=O"
  class: "criterion not met"
- compound: "Cc1nc(C)c2c(n1)CCN(CCN1CCC(c3noc4ccccc34)CC1)C2=O"
  class: "criterion met"
- compound: "Cc1ncc2c(n1)CCC(CCN1CCC(c3noc4ccccc34)CC1)C2=O (centres unmarked)"
  class: "criterion met"
- compound: "O=C1c2ncccc2CCN1CCN1CCC(c2noc3c(F)cccc23)CC1"
  class: "criterion met"
- compound: "Cn1ncc2c1C(=O)N(CCN1CCC(c3noc4ccccc34)CC1)CCC2"
  class: "criterion not met"

====

biological target: human D2 receptor (Homo sapiens (Human), UniProt P14416); test: Test 1: binding activity for human D2 receptor ([3H]Spiperone, CHO cell membrane fraction); details: human D2 receptor, [3H]Spiperone
Sequence (P14416 whole entry): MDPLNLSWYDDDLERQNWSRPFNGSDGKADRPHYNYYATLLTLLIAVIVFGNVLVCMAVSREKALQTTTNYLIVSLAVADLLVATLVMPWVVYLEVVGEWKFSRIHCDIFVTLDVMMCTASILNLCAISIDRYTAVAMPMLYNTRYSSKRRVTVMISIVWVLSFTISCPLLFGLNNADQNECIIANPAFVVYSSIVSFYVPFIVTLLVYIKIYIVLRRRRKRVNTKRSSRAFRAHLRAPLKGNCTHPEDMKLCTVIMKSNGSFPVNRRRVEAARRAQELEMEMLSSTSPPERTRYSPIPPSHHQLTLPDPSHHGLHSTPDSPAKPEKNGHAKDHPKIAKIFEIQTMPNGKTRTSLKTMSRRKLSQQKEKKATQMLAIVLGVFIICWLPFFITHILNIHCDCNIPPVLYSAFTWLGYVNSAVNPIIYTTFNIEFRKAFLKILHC
Labels assigned by Ki range: low: < 400 nM; intermediate: ≥ 400 nM and < 1000 nM; high: ≥ 1000 nM

- compound: "Cc1nc(C)c2c(n1)CCN(CCN1CCC(c3noc4ccccc34)CC1)C2=O"
  assay_target: "human D2 receptor (Homo sapiens (Human), UniProt P14416)"
  class: "intermediate"
- compound: "CC(C)n1cc2c(n1)CCN(CCN1CCN(c3nsc4ccccc34)CC1)C2=O"
  assay_target: "human D2 receptor (Homo sapiens (Human), UniProt P14416)"
  class: "intermediate"
- compound: "O=C1c2ncccc2CCN1CCN1CCC(c2noc3ccccc23)CC1"
  assay_target: "human D2 receptor (Homo sapiens (Human), UniProt P14416)"
  class: "high"
- compound: "Cc1nn(C)c2c1C(=O)N(CCN1CCN(c3noc4ccccc34)CC1)CCC2"
  assay_target: "human D2 receptor (Homo sapiens (Human), UniProt P14416)"
  class: "intermediate"
- compound: "CCn1ncc2c1CCN(CCN1CCN(c3nsc4ccccc34)CC1)C2=O"
  assay_target: "human D2 receptor (Homo sapiens (Human), UniProt P14416)"
  class: "intermediate"
- compound: "Cn1cc2c(n1)C(=O)N(CCN1CCC(c3noc4ccccc34)CC1)CCC2"
  assay_target: "human D2 receptor (Homo sapiens (Human), UniProt P14416)"
  class: "intermediate"
- compound: "CCc1ccc2c(n1)C(=O)N(CCN1CCC(c3noc4ccccc34)CC1)CC2"
  assay_target: "human D2 receptor (Homo sapiens (Human), UniProt P14416)"
  class: "high"
- compound: "Cn1ncc2c1C(=O)N(CCN1CCC(c3noc4ccccc34)CC1)CCC2"
  assay_target: "human D2 receptor (Homo sapiens (Human), UniProt P14416)"
  class: "low"
- compound: "O=C1c2occc2CCN1CCN1CCC(c2noc3ccccc23)CC1"
  assay_target: "human D2 receptor (Homo sapiens (Human), UniProt P14416)"
  class: "low"
- compound: "Cc1nc2c(o1)C(=O)N(CCN1CCC(c3noc4ccccc34)CC1)CC2"
  assay_target: "human D2 receptor (Homo sapiens (Human), UniProt P14416)"
  class: "high"
- compound: "Cc1ccc2onc(C3CCN(CCN4CCc5cccnc5C4=O)CC3)c2c1"
  assay_target: "human D2 receptor (Homo sapiens (Human), UniProt P14416)"
  class: "high"
- compound: "CCc1cc2c(cn1)C(=O)N(CCN1CCN(c3nsc4ccccc34)CC1)CC2"
  assay_target: "human D2 receptor (Homo sapiens (Human), UniProt P14416)"
  class: "low"
- compound: "Cn1cc2c(n1)CCCN(CCN1CCN(c3nsc4ccccc34)CC1)C2=O"
  assay_target: "human D2 receptor (Homo sapiens (Human), UniProt P14416)"
  class: "low"
- compound: "Cc1cc2c(cn1)C(=O)N(CCN1CCN(c3noc4ccccc34)CC1)CC21CC1"
  assay_target: "human D2 receptor (Homo sapiens (Human), UniProt P14416)"
  class: "high"
- compound: "CC1CN(CCN2CCN(c3nsc4ccccc34)CC2)C(=O)c2cnn(C)c21 (stereo not drawn)"
  assay_target: "human D2 receptor (Homo sapiens (Human), UniProt P14416)"
  class: "intermediate"
- compound: "COc1ncc2c(n1)CCN(CCN1CCC(c3noc4ccccc34)CC1)C2=O"
  assay_target: "human D2 receptor (Homo sapiens (Human), UniProt P14416)"
  class: "low"
